Recorded EC50 for the following compounds
Tested on: HIV-IIIb (wildtype)
Assay: Antiviral assay in MT4 cells, HIV-IIIb wildtype
Type: cell-based, HIV-1
Conditions: Human immunodeficiency virus 1, IIIB, MT4, 120 h, read-out: WT EC50
Description: Antiviral Assay in MT4 Cells […] Assay plates were then maintained in a humidified, 5% CO2 incubator at 37° C. […] Cell lysis was carried out by incubating at room temperature for 10 minutes and then chemiluminescence was read using an Envision plate reader (PerkinElmer). […]
Write the value in nM as a bare number.

>  <compound>
Cc1cc2nc(-c3ccc4c(c3)c(N3CC[C@H](N(C)C)C3)nn4C)sc2c(-c2ccc(Cl)cc2)c1[C@H](OC(C)(C)C)C(=O)O

>  <endpoint.label>
EC50

>  <result.number>
13

$$$$

Fill in the recorded EC50 for this compound, with HIV-IIIb (wildtype) as test system: "COC(=O)N1CC[C@@H](N2CCC(c3nn(C)c4ccc(-c5nc6cc(C)c([C@H](OC(C)(C)C)C(=O)O)c(-c7ccc(Cl)cc7)c6s5)nc34)CC2)C1"
2

Proceed to "CC(=O)N1CC(N2CCC(c3nn(CCN(C)C)c4ccc(-c5nc6cc(C)c([C@H](OC(C)(C)C)C(=O)O)c(-c7ccc(Cl)cc7)c6s5)cc34)CC2)C1"
5

Proceed to "Cc1cc2nc(-c3ccc4c(n3)c(C3CCN(C5COC5)CC3)nn4C)sc2c(-c2ccc(Cl)cc2)c1[C@H](OC(C)(C)C)C(=O)O"
3

Proceed to Cc1cc2nc(-c3ccc4c(c3)c(C3CCN(C5CN(C(C)C(F)(F)F)C5)CC3)nn4C)sc2c(-c2ccc(Cl)cc2)c1[C@H](OC(C)(C)C)C(=O)O (some centres unmarked)
13

Proceed to "Cc1cc2nc(-c3ccc4c(c3)c(C3CN(C(=O)OC(C)(C)C)C3)nn4C)sc2c(-c2ccc(Cl)cc2)c1[C@H](OC(C)(C)C)C(=O)O"
45

Proceed to "CC(=O)N1CC(N2CCC(c3nn(C)c4ccc(-c5nc6cc(C)c([C@H](OC(C)(C)C)C(=O)O)c(-c7ccc(Cl)cc7)c6s5)nc34)CC2)C1"
1

Proceed to COCCN1CCC(c2nn(C)c3ccc(-c4nc5cc(C)c([C@H](OC(C)(C)C)C(=O)O)c(-c6ccc(Cl)cc6)c5s4)cc23)C1 (single isomer, unassigned) [Compound 69]
5

Proceed to "Cc1cc2nc(-c3ccc4[nH]nc(C5CCN(C6COC6)CC5)c4n3)sc2c(-c2ccc(Cl)cc2)c1[C@H](OC(C)(C)C)C(=O)O"
11

Proceed to "COC(=O)N1CC[C@H](N2CCC(c3nn(C)c4ccc(-c5nc6cc(C)c([C@H](OC(C)(C)C)C(=O)O)c(-c7ccc(Cl)cc7)c6s5)nc34)CC2)C1"
3

Proceed to "CCn1nc(C2CCN(C3CN(C(=O)OC)C3)CC2)c2cc(-c3nc4cc(C)c([C@H](OC(C)(C)C)C(=O)O)c(-c5ccc(Cl)cc5)c4s3)ccc21"
8

###

test system: HIV-IIIb IN T174I BT; test: Antiviral assay in MT4 cells, HIV-IIIb IN T174I BT virus (from viral breakthrough); format: cell-based, HIV-1; details: Human immunodeficiency virus 1, IIIB, MT4, 120 h, read-out: T174I BT EC50, MT4 cells, HIV-IIIb IN T174I BT (viral breakthrough), 5 days, CellTiter-Glo
endpoint.label: EC50 (µM)
Write the value in µM as a bare number.

>  <compound>
Cc1cc2nc(-c3ccc4c(c3)c(C3CCN(C5COC5)CC3)nn4C)sc2c(-c2ccc(Cl)cc2)c1[C@H](OC(C)(C)C)C(=O)O

>  <result.number>
0.143

$$$$
>  <compound>
CCC(=O)N1CC(N2CCC(c3nn(C)c4ccc(-c5nc6cc(C)c([C@H](OC(C)(C)C)C(=O)O)c(-c7ccc(Cl)cc7)c6s5)cc34)CC2)C1

>  <result.number>
0.114

$$$$
>  <compound>
COCC(C)N1CC(c2nn(C)c3ccc(-c4nc5cc(C)c([C@H](OC(C)(C)C)C(=O)O)c(-c6ccc(Cl)cc6)c5s4)cc23)C1 (stereo partly drawn)

>  <result.number>
1.44

$$$$

Quick check: EC50 of "Cc1cc2nc(-c3ccc4c(c3)c(N3CCN(CC5CC5)CC3)nn4C)sc2c(-c2ccc(Cl)cc2)c1[C@H](OC(C)(C)C)C(=O)O" ?
1.88

Proceed to CCN1CCC(c2nn(C)c3ccc(-c4nc5cc(C)c([C@H](OC(C)(C)C)C(=O)O)c(-c6ccc(Cl)cc6)c5s4)cc23)C1 (stereo partly drawn)
2.84

Proceed to "Cc1cc2nc(-c3ccc4c(n3)c(C3CCN(C5COC5)CC3)nn4C3CC3)sc2c(-c2ccc(Cl)cc2)c1[C@H](OC(C)(C)C)C(=O)O"
0.121

Proceed to "Cc1cc2nc(-c3ccc4c(c3)c(N3CCC3=O)nn4C)sc2c(-c2ccc(Cl)cc2)c1[C@H](OC(C)(C)C)C(=O)O"
5.71

Proceed to "COC(=O)N1CC(N2CCC(c3cn(C)c4ncc(-c5nc6cc(C)c([C@H](OC(C)(C)C)C(=O)O)c(-c7ccc(Cl)cc7)c6s5)nc34)CC2)C1"
0.149

Proceed to "COC1CCN(c2nn(C)c3ccc(-c4nc5cc(C)c([C@H](OC(C)(C)C)C(=O)O)c(-c6ccc(Cl)cc6)c5s4)cc23)CC1"
1.56

Proceed to "Cc1cc2nc(-c3ccc4c(c3)c(N3CC(C)(C)NC3=O)nn4C)sc2c(-c2ccc(Cl)cc2)c1[C@H](OC(C)(C)C)C(=O)O"
3.48

Proceed to "CC(=O)N1CC(N2CCC(c3nn(C4CC4)c4ccc(-c5nc6cc(C)c([C@H](OC(C)(C)C)C(=O)O)c(-c7ccc(Cl)cc7)c6s5)nc34)CC2)C1"
0.027

Proceed to "Cc1cc2nc(-c3ccc4c(c3)c(C3CCN(C5COC5)CC3)nn4C(F)F)sc2c(-c2ccc(Cl)cc2)c1[C@H](OC(C)(C)C)C(=O)O"
0.651

###

test system: HIV-IIIb (wildtype); experiment: Antiviral assay in MT4 cells, HIV-IIIb wildtype; assay type: cell-based, HIV-1; conditions: Human immunodeficiency virus 1, IIIB, MT4, 120 h, read-out: WT EC50
endpoint.label: EC50 (µM)
Write the value in µM as a bare number.

Quick check: EC50 of "COC(=O)N1CC(N2CCC(c3nn(C)c4ncc(-c5nc6cc(C)c([C@H](OC(C)(C)C)C(=O)O)c(-c7ccc(Cl)cc7)c6s5)nc34)CC2)C1" ?
0.008

Proceed to "CCN1CCN(c2nn(C)c3ccc(-c4nc5cc(C)c([C@H](OC(C)(C)C)C(=O)O)c(-c6ccc(Cl)cc6)c5s4)cc23)C1=O"
0.014

Proceed to "CN[C@H]1CCN(c2nn(C)c3ccc(-c4nc5cc(C)c([C@H](OC(C)(C)C)C(=O)O)c(-c6ccc(Cl)cc6)c5s4)cc23)C1"
0.038

###

tested on: HIV-IIIb (wildtype); experiment: Antiviral assay in MT4 cells, HIV-IIIb wildtype; assay type: cell-based, HIV-1; details: Human immunodeficiency virus 1, IIIB, MT4, 120 h, read-out: WT EC50
So basically: is EC50 under 5 nM? Then MET. Not under? Then NOT MET.

Recorded results for 3 compounds are shown here.
>  <compound>
Cc1cc2nc(-c3ccn4ncc(C5CCN(C6COC6)CC5)c4n3)sc2c(-c2ccc(Cl)cc2)c1[C@H](OC(C)(C)C)C(=O)O

>  <system.under.test>
HIV-IIIb (wildtype)

>  <class.label>
MET

$$$$
>  <compound>
Cc1cc2nc(-c3ccc4c(n3)c(N3CCN(C5CS(=O)(=O)C5)CC3)nn4C)sc2c(-c2ccc(Cl)cc2)c1[C@H](OC(C)(C)C)C(=O)O

>  <system.under.test>
HIV-IIIb (wildtype)

>  <class.label>
NOT MET

$$$$
>  <compound>
CCN1CCN(c2nn(C)c3ccc(-c4nc5cc(C)c([C@H](OC(C)(C)C)C(=O)O)c(-c6ccc(Cl)cc6)c5s4)cc23)CC1

>  <system.under.test>
HIV-IIIb (wildtype)

>  <class.label>
MET

$$$$

I wonder whether "COC(=O)N1CC(N2CCC(c3cn(C)c4ncc(-c5nc6cc(C)c([C@H](OC(C)(C)C)C(=O)O)c(-c7ccc(Cl)cc7)c6s5)nc34)CC2)C1" has EC50 below 5 nM. Can you tell?
MET

Proceed to "Cc1cc2nc(-c3ccc4c(c3)c(C3CCN(S(C)(=O)=O)CC3)nn4C)sc2c(-c2ccc(Cl)cc2)c1[C@H](OC(C)(C)C)C(=O)O"
NOT MET

Proceed to "CC(=O)N1CC(N2CCC(c3cn(C)c4ncc(-c5nc6cc(C)c([C@H](OC(C)(C)C)C(=O)O)c(-c7ccc(Cl)cc7)c6s5)nc34)CC2)C1"
MET

Proceed to Cc1cc2nc(-c3ccc4c(c3)c(C3CCN(C5CC(O)C5)CC3)nn4C)sc2c(-c2ccc(Cl)cc2)c1[C@H](OC(C)(C)C)C(=O)O (some centres unmarked)
NOT MET

Proceed to Cc1cc2nc(-c3ccc4c(c3)c(C3CCN(C(=O)OC(C)(C)C)C3)nn4C)sc2c(-c2ccc(Cl)cc2)c1[C@H](OC(C)(C)C)C(=O)O (some centres unmarked)
NOT MET

Proceed to "Cc1cc2nc(-c3ccc4c(n3)c(C3CCN(C5CN(C(=O)OC(C)C)C5)CC3)nn4C)sc2c(-c2ccc(Cl)cc2)c1[C@H](OC(C)(C)C)C(=O)O"
NOT MET
